test system: OVCAR-3 ovarian; assay: NCI-60 one-dose screen, 48 h; details: 10 µM
This is part of a sample that, as a whole, favours compounds with a hit. Of some 83,000 tested, about 20% had one in any assay. Calls of active or inactive are those of the source. The calls were made as follows: active = growth percent below 10; inactive = the rest.
Pick one and only one: YES for active, NO for inactive

Q: Just curious, what result did `Cc1c(C(=O)N[C@H](CO)Cc2ccccc2)[nH]c2ccc(Cl)cc2c1=O` get here?
Result: NO

Q: Now consider `Cn1cnc([N+](=O)[O-])c1Sc1nnc(-c2ccccc2)c(-c2ccccc2)n1` and answer again.
Result: NO

Q: Moving on to `CCN1CCN(c2nc(NNC(=O)c3cccc(OC)c3)nc(N3CCN(C(c4ccccc4)c4ccccc4)CC3)n2)CC1`
Result: NO

Q: Next compound: `c1ccc(OCCC[P+](c2ccccc2)(c2ccccc2)c2ccccc2)cc1`
Result: YES

Q: Input `CCOC(=O)c1c(C(F)(F)F)n([O-])c2ccc(OC)cc2[n+]1=O`
Result: NO

Q: Again, but for CC[C@@]1(C(N)=O)CC2C=CC1C2 (stereo partly specified)
Result: NO

---

test system: NCI-H460 lung; experiment: NCI-60 one-dose screen, 48 h; settings: 10 µM
About 83,000 compounds went through this panel and 20% of them were active in at least one assay; those are over-represented in the sample as a whole. The source made the active and inactive calls. The calls were made as follows: active = growth percent below 10; inactive = the rest.
Result category, one only: y (active), n (inactive)

Examples with answers:
CNC(=S)Sc1ccc([N+](=O)[O-])cc1[N+](=O)[O-]    n
NS(=O)(=O)c1ccc(N2N=C(c3ccc(-c4ccccc4)cc3)CC2c2ccc(Cl)cc2)cc1 (centres undefined)    n
CCN(CC)CC(O)CNc1ccnc2cc(Cl)c(Cl)cc12 (centres undefined)    n

Q: Can you look up the reported call for `Cc1ccc(S(=O)(=O)Oc2ccccc2-c2ccccc2)cc1` for me?
Result: y

Q: What would you report for `COc1ccc(C(=O)c2sc3nc(-c4cccs4)ccc3c2N)cc1OC` ?
Result: n

Q: Quick one: `Cc1cccc2c(Nc3ccc(NS(C)(=O)=O)cc3)c3ccc([N+](=O)[O-])cc3nc12`
Result: y

Q: Can you check `CCCCCCCCCCCCCCCCCBr` next?
Result: n

Q: And `COc1ccccc1CNCCCN1C(=O)c2ccc3c4c(ccc(c24)C1=O)C(=O)N(CCCNCCNCCCN)C3=O` ?
Result: y

Q: Now the molecule `Cc1ccc(Cl)cc1Nc1nc(C(F)(F)F)ccc1C(=O)N/N=C/c1c(Cl)cccc1Cl`
Result: y

Q: Try this molecule next: `CCc1cc2n(n1)-c1ncc(C(=O)OC)cc1Oc1ccccc1-2`
Result: n

Q: Lookup `O=C(/C=C/c1ccc(Cl)cc1)c1ccc(Br)cc1`
Result: n

Q: Now give it for `COc1ccc(C(=O)/C=C/c2cc(-c3ccc(OC)c(OC)c3)n[nH]2)cc1OC` too.
Result: y

Q: Another molecule to look at: `Cc1ccc(-n2nnc3c(sc4ccccc43)c2=O)cc1`
Result: n

Q: Same question, `Cc1ccc2nc3[nH]c(=O)[nH]c(=O)c3c(N)c2c1` this time
Result: n

Q: Can you check COc1cccc2c1C(=O)c1c(O)c3c(c(O)c1C2=O)C[C@@](O)(C(=O)COC(=O)c1cccnc1)C[C@@H]3OC1CC(N)C(O)C(C)O1 (some centres undefined) next?
Result: y

Q: `CCCCn1c(=O)[nH]c(N)c(C(c2ccc(Cl)cc2)c2c(N)[nH]c(=O)n(CCCC)c2=O)c1=O` , same question.
Result: n

---

Test system: LOX IMVI melanoma
Assay: NCI-60 one-dose screen, 48 h
Conditions: 10 µM
Experimental: Growth inhibition of the LOX IMVI human tumor cell line is measured as a screen for anti-cancer activity. Cells are grown in 96 well plates and exposed to the test compound for 48 hours. Compounds are tested at a single concentration, which is 10^-5 M for most compounds. The reported endpoint is percent growth (GI% or GIPRCNT), where numbers from 0 - 100% represent growth inhibition, and numbers from -100% - 0 represent cell death. For example, a value of 40 represents 60% growth inhibition. […]
About 83,000 compounds went through this panel and 20% of them were active in at least one assay; those are over-represented in the sample as a whole. Calls of active or inactive are those of the source. Rule for the calls: active = growth percent below 10; inactive = the rest.
Answer with one of the outcomes given here: true for active, false for inactive

Oc1ccccc1-c1nnc(Cn2c(Cc3cccc4ccccc34)nc3ccccc32)o1    false
CS(=O)(=O)Nc1ccc([N+](=O)[O-])cc1Oc1ccccc1    false
COc1ccc(Cn2cc3c(c2-c2cc(OC)c(OC)c(OC)c2)CCc2cnoc2-3)cc1N    false
CCOCC[P+](c1ccccc1)(c1ccccc1)c1ccccc1    false
Cn1cnc([N+](=O)[O-])c1Sc1nnc(-c2ccccc2)c(-c2ccccc2)n1    false
CNC(=O)c1cc(Oc2ccc(NC(=O)Nc3ccc(Cl)c(OC(C)C)c3)c(F)c2)ccn1    false
C[n+]1c(/C=C/c2c[nH]c3ccccc23)ccc2ccccc21    false
O=c1[nH]c(=O)n(C2C[C@@H](O)[C@@H](CO)O2)cc1F (some centres undefined)    false
COc1ccc(-c2cc(/C=C/C(=O)c3ccc(N)cc3)[nH]n2)cc1OC    true
C=CCOc1ccc2c(c1)CC=C1[C@@H]2CC[C@]2(C)C(=O)/C(=N/O)C[C@@H]12    false

Q: What call does the record list for `CC(=O)Nc1nc(C)c(C(=O)NNC=O)s1` ?
Result: false

Q: What do you have for `CCCc1c(C)nc2scc(-c3ccc(Cl)cc3)n2c1=O` ?
Result: false

---

test system: UO-31 renal; experiment: NCI-60 one-dose screen, 48 h; conditions: 10 µM
Compounds without any hit were thinned out: in the full panel of roughly 83,000, 20% have a hit. The source made the active and inactive calls. Rule for the calls: active = growth percent below 10; inactive = the rest.
Can you answer with just one of these options? active, inactive

Please review the following examples before continuing.
C/C(=N\NC(N)=S)C(C)(C)O    inactive
Cc1nc(Nc2nc3ccccc3o2)nc(-c2cccc([N+](=O)[O-])c2)c1C(=O)Nc1ccc(F)c(Cl)c1    inactive
C[N+]1(CC2CO2)CCCCCC1 (configuration not stated)    inactive
O=C(Nc1cccc(F)c1)Nc1cccc(Cl)c1    inactive
Cc1cc(C#Cc2ccccc2)ccc1-n1c(/C=C/c2cc(O)ccc2O)nc2ccccc2c1=O    active

Q: For `Cc1nc2ccc(-n3c(-c4ccc(Cl)cc4)nc4ccccc4c3=O)cc2n1Cc1ccccc1` , which call appears in the assay record?
Result: inactive

Q: Next: `COc1ccccc1NC1=C(N2CCCCC2)C(=O)c2ccccc2C1=O`
Result: inactive

Q: What about this molecule? `COc1ccc2nc(-c3ccccc3)cc(C(C)=O)c2c1`
Result: inactive

Q: What do we get for `O=C(N/N=C\c1cc(Cl)ccc1O)c1ccncc1` ?
Result: inactive

Q: Further, for `CCN1CCN(c2nc(NNC(=O)c3cccc(OC)c3)nc(N3CCN(C(c4ccccc4)c4ccccc4)CC3)n2)CC1` ?
Result: inactive

Q: Same for `C#CCNCCCN1C(=O)c2ccc3c4c(ccc(c24)C1=O)C(=O)N(CCCNCC#C)C3=O`
Result: active

Q: Another: `COc1cc(/C=C/C(=O)c2cc(-c3ccccc3)ccc2O)cc(OC)c1OC`
Result: inactive

---

test system: NCI-H522 lung; experiment: NCI-60 one-dose screen, 48 h (100 = growth as untreated, 0 = no growth, -100 = all killed); details: 10 µM
This is part of a sample that, as a whole, favours compounds with a hit. Of some 83,000 tested, about 20% had one in any assay.
assay-metric: growth (%)
// return numeric value only (unit: %, not printed)

Field: example entries. Status: answers known.
CCCCCC(=O)N1c2ccccc2NC2=C(C(=O)CC(c3ccc(OC)c(OC)c3)C2)C1c1ccc(C(F)(F)F)cc1 (stereo not given)    37.5
O=C(NCc1cn(Cc2cccc(Oc3ccccc3)c2)nn1)c1cccnc1Nc1ccccc1    54.5
COc1ccc(-c2nnc(SC/C(=N\O)c3ccccc3)o2)cc1    71.4
FC(F)(F)c1ccc(-c2cnc(Cl)nc2NC2CCCCCC2)cc1    -6.08

Okay, now this molecule:
Q: Dear colleague, I am looking for the recorded growth of the following molecule: COc1cc(C2C=C(c3ccc(Cl)cc3)N=C3SC(C)=CN32)cc(OC)c1OC (stereo not given)
Result: 69.9

---

system: SK-MEL-28 melanoma; assay: NCI-60 one-dose screen, 48 h (100 = growth as untreated, 0 = no growth, -100 = all killed); conditions: 10 µM
This is part of a sample that, as a whole, favours compounds with a hit. Of some 83,000 tested, about 20% had one in any assay.
Strictly below 90% in growth: 1 (yes). Otherwise: 0 (no).

Q: Is growth strictly under 90% for the entry `CC(C)c1[nH]nc2c(NCc3ccc(-c4ccccn4)cc3)nc(SCCN(C)C)nc12` ?
Result: 1 (yes)

Q: Subsequent entry: `O=C(Nc1cccc(-c2nc3ccccc3[nH]2)c1)c1cccc(NC(=O)c2ccco2)c1`
Result: 1 (yes)

Q: Proceed to `CCN1CCN(c2ccc(Nc3ncnc4c3nnn4CCc3cc(OC)cc(OC)c3)cc2)CC1`
Result: 0 (no)

Q: And for NC(=O)C1CCCN(Cc2c[nH]c3ccccc23)C1 (configuration not stated) ?
Result: 0 (no)

Q: Next entry: `COc1cc(OC)cc(-c2n/c(=C\c3c(O)[nH]c4ccc(OC)cc34)cc3c2=Nc2ccccc2-3)c1`
Result: 0 (no)

Q: Entry CC[C@@]1(C(N)=O)CC2C=CC1C2 (some centres not stated) please
Result: 0 (no)
